The entries below come with measured IC50 values attached.
molecular target: MEK1 activated ERK1 (Homo sapiens); construct: purchased Millipore (Billerica, Mass.) 14-439-K; experiment: Omnia continuous-read kinase assay for potency against MEK1 activated ERK1; type: biochemical; details: MEK1 activated ERK1, ATP at KM; read-out: ERK1 Omnia WT ATP KM IC50
Sequence (P27361 whole entry): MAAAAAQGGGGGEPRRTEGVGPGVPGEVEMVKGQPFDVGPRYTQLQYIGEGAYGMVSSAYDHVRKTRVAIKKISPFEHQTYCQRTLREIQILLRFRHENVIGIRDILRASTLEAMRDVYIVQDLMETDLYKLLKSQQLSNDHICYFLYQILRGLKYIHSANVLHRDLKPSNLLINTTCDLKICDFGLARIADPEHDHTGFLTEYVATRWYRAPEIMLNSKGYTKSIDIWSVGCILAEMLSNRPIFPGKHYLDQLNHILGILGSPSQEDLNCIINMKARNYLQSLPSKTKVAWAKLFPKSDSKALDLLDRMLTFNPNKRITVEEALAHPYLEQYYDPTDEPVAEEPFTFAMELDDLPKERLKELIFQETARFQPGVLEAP

- COMPOUND: "C=CC(=O)Nc1cc(OC)ccc1Nc1nc(Nc2ccc(N3CCN(C(C)=O)CC3)cc2OC)ncc1Cl"
  PARAMETER_MEASURED: "IC50"
  DATA_VALUE: "501 to 999 nM"
- COMPOUND: "C=CC(=O)Nc1ccccc1Nc1nc(Nc2cc(C(=O)NOC)ccc2C#N)ncc1C(F)(F)F"
  PARAMETER_MEASURED: "IC50"
  DATA_VALUE: "101 to 500 nM"
- COMPOUND: "C#CC(=O)N[C@@H]1CCCC[C@H]1Nc1nc(N[C@H]2CCCN(C(=O)CO)C2)ncc1C(F)(F)F"
  PARAMETER_MEASURED: "IC50"
  DATA_VALUE: "101 to 500 nM"
- COMPOUND: "C=CC(=O)Nc1ccccc1Nc1nc(N[C@@H]2CCCN(C(C)=O)C2)ncc1Cl"
  PARAMETER_MEASURED: "IC50"
  DATA_VALUE: "101 to 500 nM"
- COMPOUND: "C=CC(=O)Nc1ccccc1Nc1nc(Nc2ccc(N(CCNC(=O)OC(C)(C)C)C(C)=O)cc2OC)ncc1Cl"
  PARAMETER_MEASURED: "IC50"
  DATA_VALUE: "501 to 999 nM"
- COMPOUND: "C=CC(=O)Nc1ccccc1Nc1nc(Nc2cc(C(=O)NOCCO)ccc2C)ncc1C(F)(F)F"
  PARAMETER_MEASURED: "IC50"
  DATA_VALUE: "101 to 500 nM"

**Q:** Returns the measured IC50 for the input compound. Input: C=CC(=O)Nc1ccccc1Nc1nc(Nc2cc(C(=O)NOC)ccc2C#N)ncc1Cl
**A:** 101 to 500 nM

**Q:** And what about the compound C=CC(=O)Nc1cc(OC)ccc1Nc1nc(Nc2ccc(N(CC)C(C)=O)cc2OC)ncc1Cl ?
**A:** 101 to 500 nM

**Q:** // repeat for C=CC(=O)Nc1ccccc1Nc1nc(N[C@H]2CC[C@H](O)CC2)ncc1C(F)(F)F and report
**A:** 101 to 500 nM

**Q:** Moving on to the next compound: C=C(C)S(=O)(=O)Nc1ccccc1Nc1nc(Nc2cc(C(C)=O)ccc2C)ncc1C(F)(F)F
**A:** 501 to 999 nM

**Q:** What do we get for C=CC(=O)Nc1ccccc1Nc1nc(Nc2cc(C(=O)NOC)ccc2OC)ncc1C(F)(F)F ?
**A:** 101 to 500 nM

**Q:** Here is the next compound: C=CC(=O)Nc1cc(C)ccc1Nc1nc(Nc2cc(NC3CC3)nc(OC)c2)ncc1C(F)(F)F
**A:** 501 to 999 nM

**Q:** Now give it for C=CC(=O)Nc1ccccc1Nc1nc(N[C@@H]2CCC[C@H](C(=O)NOCCO)C2)ncc1C(F)(F)F (racemic) too.
**A:** 101 to 500 nM

**Q:** Proceed to C=CC(=O)Nc1cc(OC)ccc1Nc1nc(Nc2ccc(N3CCCN(C(=O)OC(C)(C)C)CC3)cc2C#N)ncc1Cl
**A:** 101 to 500 nM

**Q:** // next record C=CC(=O)Nc1ccccc1Nc1nc(Nc2cc(Cl)nc(OC)c2)ncc1Cl
**A:** 101 to 500 nM

---

test system: A375 cells (malignant melanoma); assay: Inhibition of cancer cell proliferation, A375 (CellTiterGlo, 72 hours); format: cell-based; settings: Homo sapiens, A-375
PARAMETER_MEASURED: GI50

Below are worked cases with known answers.
- SAMPLE_SMILES: "C=CC(=O)Nc1ccccc1Nc1nc(Nc2cc(NCCOC)nc(OC)c2)ncc1C(F)(F)F"
  GI50: "< 100 nM"
- SAMPLE_SMILES: "C=CC(=O)Nc1cc(OC)ccc1Nc1nc(Nc2cc(Cl)nc(OC)c2)ncc1Cl"
  GI50: "101 to 500 nM"
- SAMPLE_SMILES: "C=CC(=O)Nc1ccccc1Nc1nc(N[C@H]2CCCN(C(=O)C=O)C2)ncc1C(F)(F)F"
  GI50: "101 to 500 nM"
- SAMPLE_SMILES: "C=CC(=O)Nc1ccccc1Nc1nc(Nc2cc(C(=O)NC)c(F)cc2C)ncc1C(F)(F)F"
  GI50: "101 to 500 nM"
- SAMPLE_SMILES: "C=CC(=O)Nc1cc(C)ccc1Nc1nc(Nc2cc(OC)ncc2C)ncc1Cl"
  GI50: "101 to 500 nM"

**Q:** Need GI50 of C=CC(=O)Nc1cc(C)c(F)cc1Nc1nc(Nc2nc(OC)ncc2C)ncc1C(F)(F)F , thanks.
**A:** 101 to 500 nM

**Q:** And then C=CC(=O)Nc1ccccc1Nc1nc(Nc2cc(OC)cc(OC)c2)ncc1C(F)(F)F , what is it?
**A:** < 100 nM

**Q:** Try this compound too: C=CC(=O)Nc1ccccc1Nc1nc(Nc2cc(OC)nc(N3CCN(C)CC3)c2)ncc1C(F)(F)F
**A:** < 100 nM

---

test system: HT-29 cells (colorectal adenocarcinoma); test: Inhibition of cancer cell proliferation, HT-29 (CellTiterGlo, 72 hours); assay type: cell-based; conditions: Homo sapiens
PARAMETER_MEASURED: GI50

Answered cases to consult:
- COMPOUND: "C=CC(=O)Nc1cc(C)ccc1Nc1nc(Nc2cc(C(N)=O)ccc2C)ncc1Cl"
  MEASURED_TARGET: "HT-29 cells (colorectal adenocarcinoma)"
  GI50: "< 100 nM"
- COMPOUND: "C=CC(=O)N[C@@H]1CCCC[C@H]1Nc1nc(Nc2cc(C(N)=O)ccc2C)ncc1C(N)=O (racemic)"
  MEASURED_TARGET: "HT-29 cells (colorectal adenocarcinoma)"
  GI50: "> 1000 nM"
- COMPOUND: "C=CC(=O)Nc1ccccc1Nc1nc(Nc2cc(C(N)=O)ccc2C)ncc1C"
  MEASURED_TARGET: "HT-29 cells (colorectal adenocarcinoma)"
  GI50: "101 to 500 nM"

**Q:** Record request: GI50 value, item C=CC(=O)Nc1cc(C)ccc1Nc1nc(Nc2ccnc3ccccc23)ncc1C(F)(F)F
**A:** 101 to 500 nM

**Q:** Same thing, different compound: O=C(CCCl)Nc1ccccc1Nc1nc(N[C@H]2CCCN(C(=O)CO)C2)ncc1C(F)(F)F
**A:** 501 to 999 nM

**Q:** Also, C=CC(=O)Nc1ccccc1Nc1nc(Nc2ccc(N(CCN)C(C)=O)cc2OC)ncc1Cl please.
**A:** > 1000 nM

**Q:** Next record, please: C=CC(=O)Nc1cc(C)ccc1Nc1nc(Nc2nc(OC)ncc2C(F)(F)F)ncc1C(F)(F)F
**A:** 501 to 999 nM

**Q:** Another compound to check: C=CC(=O)Nc1ccccc1Oc1nc(Nc2ccc(N3CCC[C@@H]3C(N)=O)cc2OC)ncc1C(N)=O
**A:** > 1000 nM

---

# Lookup of reported GI50 keyed by entry
system: HT-29 cells (colorectal adenocarcinoma); assay: Inhibition of cancer cell proliferation, HT-29 (CellTiterGlo, 72 hours); assay type: cell-based; conditions: Homo sapiens

Some molecules with known GI50 results, for comparison:
- MOLECULE: "C=CC(=O)Nc1cc(C)ccc1Nc1nc(Nc2nc(OC)ccc2Cl)ncc1C(F)(F)F [Compound I-360]"
  GI50: "> 1000 nM"
- MOLECULE: "C=CC(=O)Nc1ccccc1Nc1nc(Nc2cc(C(=O)NOC)ccc2C#N)ncc1C(F)(F)F [Compound I-72]"
  GI50: "> 1000 nM"
- MOLECULE: "C=CC(=O)Nc1ccccc1Nc1nc(Nc2ccnnc2)ncc1C(F)(F)F [Compound I-293]"
  GI50: "< 100 nM"
- MOLECULE: "C=CC(=O)Nc1cc(C)ccc1Nc1nc(Nc2cc(OC)ncc2C)ncc1Cl [Compound I-241]"
  GI50: "< 100 nM"
- MOLECULE: "C=CC(=O)N[C@@H]1CCCC[C@H]1Nc1nc(Nc2cc(C(=O)NOC)ccc2C)ncc1Cl [Compound I-190]"
  GI50: "> 1000 nM"
- MOLECULE: "C=CC(=O)Nc1cc(C)ccc1Nc1nc(Nc2cc(OC)cc(OC)c2)ncc1C(F)(F)F [Compound I-339]"
  GI50: "< 100 nM"
- MOLECULE: "C=CC(=O)Nc1ccccc1Nc1nc(Nc2cc(C(N)=O)ccc2C#N)ncc1C(F)(F)F [Compound I-71]"
  GI50: "101 to 500 nM"
- MOLECULE: "C=CC(=O)Nc1cc(C)ccc1Nc1nc(Nc2cc(OC)nc(N(C)C3CC3)c2)ncc1C(F)(F)F [Compound I-342]"
  GI50: "< 100 nM"

**Q:** Item under review: C=CC(=O)Nc1cc(C)ccc1Nc1nc(Nc2cc(OC)nc(N3CC(O)C3)c2)ncc1C(F)(F)F [Compound I-328] . Reported GI50?
**A:** < 100 nM

**Q:** Could you do the same for C=CC(=O)Nc1ccccc1Nc1nc(N[C@H]2CCN(C(=O)CO)C2)ncc1C(F)(F)F [Compound I-57] , please?
**A:** 101 to 500 nM

**Q:** Queued: C=CC(=O)Nc1ccccc1Nc1nc(NC2CCCC(C(N)=O)C2)ncc1Cl (racemic) [Compound I-102]
**A:** 101 to 500 nM

**Q:** Then this molecule: C=CC(=O)Nc1ccccc1Nc1nc(Nc2cc(Cl)nc(OC)c2)ncc1Cl [Compound I-246]
**A:** < 100 nM
